# maps each entry to its concentration at 1 h
Assay: Concentration in rat plasma after subcutaneous administration
Assay type: in vivo
Conditions: sc, rats, 50 mg/kg, an hour after administration
Numeric answer only, unit ng/mL assumed.

A selection of reference data follows.
> print(dat)
                                   compound         quantity.name  unit.symbol  reported.result
1  CC(C)C[C@H](NC(=O)[C@H]1O[C@@H]1C(=O)O)C(=O)NCCCCCCCN  concentration at 1 h        ng/mL            15000
2  CC(C)C[C@H](NC(=O)C1OC1C(=O)O)C(=O)NCCCCCN (mixture of isomers)  concentration at 1 h        ng/mL            20000

Okay, next one:
Q) What does the data say about its concentration at 1 h? Entry: CC(C)C[C@H](NC(=O)C1OC1C(=O)O)C(=O)NCCCCCCCNC(=O)OCc1ccccc1 (mixture of isomers)
A) 11000

----------
Target: CANP prepared from a muscle of hereditary muscular dystrophy chicken (Gallus gallus, UniProt P00789)
Construct: CANP prepared from a muscle of hereditary muscular dystrophy chicken; from tissue; host or cells: muscle of hereditary muscular dystrophy chicken
Sequence (P00789 whole entry): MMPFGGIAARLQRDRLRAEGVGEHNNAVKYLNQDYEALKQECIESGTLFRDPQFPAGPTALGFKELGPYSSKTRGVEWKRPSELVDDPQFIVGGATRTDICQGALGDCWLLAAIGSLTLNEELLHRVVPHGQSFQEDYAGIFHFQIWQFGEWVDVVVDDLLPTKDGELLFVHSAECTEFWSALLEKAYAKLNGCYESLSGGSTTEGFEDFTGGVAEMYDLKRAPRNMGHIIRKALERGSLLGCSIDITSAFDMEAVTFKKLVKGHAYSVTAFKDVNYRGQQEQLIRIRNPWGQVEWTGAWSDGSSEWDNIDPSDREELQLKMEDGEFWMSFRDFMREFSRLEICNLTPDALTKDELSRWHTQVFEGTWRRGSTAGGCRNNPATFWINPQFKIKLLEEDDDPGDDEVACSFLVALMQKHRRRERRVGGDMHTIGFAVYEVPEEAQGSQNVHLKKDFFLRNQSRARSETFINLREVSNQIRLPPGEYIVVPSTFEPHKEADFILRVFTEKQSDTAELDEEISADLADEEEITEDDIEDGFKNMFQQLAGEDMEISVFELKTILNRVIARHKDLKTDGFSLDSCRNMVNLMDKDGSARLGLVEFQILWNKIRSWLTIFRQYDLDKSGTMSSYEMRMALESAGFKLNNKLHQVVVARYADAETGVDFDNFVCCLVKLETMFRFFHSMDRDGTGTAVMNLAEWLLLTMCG
Assay: CANP inhibitory activity (method of Ishiura et al.)
Format: biochemical
Details: 50% inhibition as molar ratio to the enzyme
# maps each entry to its CANP Inhibitory Activity ID50 (mole/mole)
Numeric answer only, unit mole/mole assumed.

A selection of reference data follows.
> print(dat)
                                   compound  reported.result
1  CC(C)C[C@H](NC(=O)[C@H]1O[C@@H]1C(=O)O)C(=O)NCCCCCCCN               33
2  CCOC(=O)C1OC1C(=O)N[C@@H](CC(C)C)C(=O)NCCCCNC(=O)OCc1ccccc1 (stereo partly shown) [F, reference compound]              480
3  CC(C)C[C@H](NC(=O)C1OC1C(=O)O)C(=O)NCCCCCCCNC(=O)OCc1ccccc1 (mixture of isomers)               20

Okay, next one:
Q) What does the data say about its CANP Inhibitory Activity ID50 (mole/mole)? Entry: CC(C)C[C@H](NC(=O)C1OC1C(=O)O)C(=O)NCCCCCN (mixture of isomers)
A) 54

----------
Details: in vivo
Procedure: The response was evaluated by the blueing spot at 15 minutes after the dye injection.
# maps each entry to its Acceleration of vascular permeability, Relative effect (%) to E-64
Numeric answer only, unit % assumed.

> print(dat)
                                   compound  reported.result
1  CC(C)C[C@H](NC(=O)[C@H]1O[C@@H]1C(=O)O)C(=O)NCCCCCCCN [Compound 1]              2.8

Q) What does the data say about its Acceleration of vascular permeability, Relative effect (%) to E-64? Entry: CC(C)C[C@H](NC(=O)C1OC1C(=O)O)C(=O)NCCCCCCCNC(=O)OCc1ccccc1 (mixture of isomers) [Compound 3]
A) 2.4

Q) Moving on to CC(C)C[C@H](NC(=O)[C@H]1O[C@@H]1C(=O)O)C(=O)NCCCCN=C(N)N [Compound E-64, reference compound]
A) 100.0

Q) Moving on to CC(C)C[C@H](NC(=O)C1OC1C(=O)O)C(=O)NCCCCCN (mixture of isomers) [Compound 2]
A) 2.3
